Value source: PubChem BioAssay (NCI)

# Tested on: UO-31 renal
# assay-name: NCI-60 one-dose screen, 48 h (100 = growth as untreated, 0 = no growth, -100 = all killed)
# applied-conditions: 10 µM unless noted
About 83,000 compounds went through this panel and 20% of them were active in at least one assay; those are over-represented in the sample as a whole.
Quick rule for you: growth under 80% gets satisfied, anything else gets not satisfied.

INSERT INTO measurements (molecule, qualitative_label) VALUES
  ('CCOc1ccccc1C(=O)N1CCN(c2cc(Cl)cc(Cl)c2)CC1', 'satisfied'),
  ('C=C1C(=O)O[C@H]2[C@H]1CC/C(COC(=O)n1ccnc1C)=C\CC[C@@]1(C)O[C@@H]21', 'not satisfied'),
  ('COc1ccccc1N1CCN(CC(O)COc2c(Br)c(Br)c(Br)c3c2OC(C)(C)C3)CC1 (stereo not given)', 'satisfied'),
  ('COc1ccc(-c2nnc(SCC(=O)Nc3ccc(C(=O)/C=C/c4ccc(OC)c(OC)c4)cc3)o2)cc1', 'satisfied'),
  ('S=c1[nH]nc(Cn2c3ccccc3c3ccncc32)o1', 'not satisfied');

Determine if COC(OC)C1(c2ccccc2)NC(=O)NC1=O (stereo not given) shows growth strictly lower than 80%. not satisfied

Field: below-cutoff. Rule: recorded growth strictly less than 80%. Subject: "O=C(Nc1ccc(-n2ccc3c(NC(=O)c4ccccc4)nccc32)cc1)Nc1ccc(Cl)c(Cl)c1" satisfied

Say whether its growth is strictly beneath 80%. Entry: "COc1cc(NC(=O)C#Cc2ccccc2)c(OC)cc1Cl" satisfied

For this molecule, is growth lower than 80%? "O=C(C[n+]1ccccc1Cl)c1ccc2c(c1)CCCC2" not satisfied

Consider the molecule "Cc1ccc(-c2cc(-c3nnc(SCC(=O)c4ccccc4)o3)c3ccccc3n2)cc1" . Is its growth strictly less than 80%? satisfied

---

# System: SK-MEL-2 melanoma
# assay-name: NCI-60 one-dose screen, 48 h (100 = growth as untreated, 0 = no growth, -100 = all killed)
# applied-conditions: 10 µM unless noted
The panel holds about 83,000 compounds, 20% with a hit somewhere; the sample as a whole holds those more often.
Given measured growth, output y if it is greater than or equal to 60% and n if not.

For orientation, consider the following solved cases.
INSERT INTO assay_data (compound, qualitative_label) VALUES
  ('CC/C(=C(\CC)c1ccc(OCCN(CC)CC)cc1)c1ccc(OCCN(CC)CC)cc1', 'n'),
  ('CC1(C)CC(=O)C2=C(C1)OC1=C(C(=O)CC(C)(C)C1)C2c1ccc(OCc2cn(-c3ccc(F)cc3F)nn2)cc1', 'y'),
  ('O=C(Nc1ccc(Cl)c(Cl)c1)Nc1ccc(Cl)c([N+](=O)[O-])c1', 'n'),
  ('CCOC(=O)c1noc2c1CCc1cn(Cc3cc(OC)cc(OC)c3)cc1-2', 'y'),
  ('COc1cc(/C=C/C(=O)c2ccc(Oc3ncnc4ccccc34)cc2)cc(OC)c1OC', 'y');

Hi, just wondering whether CCC1S/C(=N\N=C(/C)c2ccco2)N(c2ccccc2)C1=O (stereo not drawn) shows growth of 60% or higher. y

Does "O=C(O)c1ccc2nc(-c3ccc(OCCCCCOc4ccc(-c5nc6ccc(C(=O)O)cc6[nH]5)cc4)cc3)[nH]c2c1" have a reported growth of at least 60%? y

Does the compound "COc1ccc(-c2cnc(-c3ccc(F)cc3)[nH]2)cc1" have recorded growth that is 60% or more? y

Threshold query (growth >= 60%) on "O=C1C(Cl)=C(Nc2cccc3cc4ccccc4nc23)C(=O)c2ccccc21" n
